Target: T1, CAPRIN-1 protein expressed on the membrane surface of human cancer cells (human, UniProt Q14444 2-709)
T1 sequence (looked up): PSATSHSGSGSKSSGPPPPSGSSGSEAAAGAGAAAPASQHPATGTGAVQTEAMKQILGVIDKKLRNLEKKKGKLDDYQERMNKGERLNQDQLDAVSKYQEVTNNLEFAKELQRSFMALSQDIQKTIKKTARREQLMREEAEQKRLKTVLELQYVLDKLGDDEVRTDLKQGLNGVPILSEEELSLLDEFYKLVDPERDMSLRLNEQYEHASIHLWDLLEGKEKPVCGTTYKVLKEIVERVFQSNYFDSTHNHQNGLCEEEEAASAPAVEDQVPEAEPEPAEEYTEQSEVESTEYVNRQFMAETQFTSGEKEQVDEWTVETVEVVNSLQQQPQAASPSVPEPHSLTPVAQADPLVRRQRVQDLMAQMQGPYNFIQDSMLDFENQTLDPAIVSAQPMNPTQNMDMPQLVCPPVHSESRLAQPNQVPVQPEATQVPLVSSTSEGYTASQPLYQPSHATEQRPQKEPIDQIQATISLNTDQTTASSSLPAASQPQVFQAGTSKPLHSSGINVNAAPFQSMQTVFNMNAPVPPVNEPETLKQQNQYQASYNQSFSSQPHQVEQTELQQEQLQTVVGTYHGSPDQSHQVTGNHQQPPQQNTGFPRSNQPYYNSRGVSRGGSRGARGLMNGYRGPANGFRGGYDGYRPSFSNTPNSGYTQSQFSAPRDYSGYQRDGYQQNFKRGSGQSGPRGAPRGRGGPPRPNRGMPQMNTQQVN
Assay: cell-based or functional assay
measurement.kind: ADCC cytotoxic activity (51Cr release) on Caki-2

Problem: What measured ADCC cytotoxic activity (51Cr release) on Caki-2 goes with humanized antibody #10 (antibody, V domains shown) VH: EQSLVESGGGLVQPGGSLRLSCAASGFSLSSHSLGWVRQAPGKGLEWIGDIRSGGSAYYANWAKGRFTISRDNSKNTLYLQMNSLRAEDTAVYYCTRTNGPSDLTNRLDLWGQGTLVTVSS VL: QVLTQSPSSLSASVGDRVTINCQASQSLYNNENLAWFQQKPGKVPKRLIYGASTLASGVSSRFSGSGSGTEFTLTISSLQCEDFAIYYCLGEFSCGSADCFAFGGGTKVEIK ?
Solution: ≥ 37%

Problem: Any idea what ADCC cytotoxic activity (51Cr release) on Caki-2 was measured for humanized antibody #3 (antibody, V domains shown) VH: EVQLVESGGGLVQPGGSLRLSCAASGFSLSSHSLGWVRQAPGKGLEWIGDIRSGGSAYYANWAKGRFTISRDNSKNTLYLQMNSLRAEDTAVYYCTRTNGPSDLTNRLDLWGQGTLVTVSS VL: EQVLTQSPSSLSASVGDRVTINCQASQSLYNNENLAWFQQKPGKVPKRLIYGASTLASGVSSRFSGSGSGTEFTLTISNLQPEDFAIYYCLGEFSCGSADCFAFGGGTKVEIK ?
Solution: ≥ 33%

Problem: Given the binder humanized antibody #0 (antibody, V domains shown) VH: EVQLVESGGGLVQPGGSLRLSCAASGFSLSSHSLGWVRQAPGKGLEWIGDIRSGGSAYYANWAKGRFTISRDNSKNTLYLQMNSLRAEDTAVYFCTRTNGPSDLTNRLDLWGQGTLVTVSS VL: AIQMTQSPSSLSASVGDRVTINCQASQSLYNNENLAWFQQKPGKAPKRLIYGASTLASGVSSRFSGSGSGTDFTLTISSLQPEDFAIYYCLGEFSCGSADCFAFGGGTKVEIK , what is its reported ADCC cytotoxic activity (51Cr release) on Caki-2?
Solution: ≥ 26%
